Target: P2X4 (Homo sapiens)
Assay: Assay A: human P2X4 receptor cell line, FLIPR calcium assay (Fluo-8, agonist Bz-ATP at EC80)
Format: cell-based
Parameters: host or cells: HEK 293 (recombinant, constitutively expressing; with mitochondrial photina in Assay B)
Details: HEK human P2X4 cells, Fluo-8 FLIPR, Bz-ATP at EC80; average values
pIC50: −log10 of the molar value.
measurement-label: pIC50

For orientation, consider the following solved cases.
cpd-smiles	measurement-label	val
NS(=O)(=O)c1cc(NC(=O)Cc2c(Cl)ccc3c2CCO3)ccc1Oc1cccc(Cl)c1	pIC50	6.86
NS(=O)(=O)c1cc(NC(=O)Cc2ccc(C(F)(F)F)cc2Cl)ccc1Oc1cccc(Cl)c1	pIC50	6.20
NS(=O)(=O)c1cc(NC(=O)Cc2ccccc2Cl)ccc1OCc1ccccc1Cl	pIC50	7.07
NS(=O)(=O)c1cc(NC(=O)Cc2ccccc2Cl)ccc1Oc1cnc(Cl)c(F)c1	pIC50	6.63
NS(=O)(=O)c1cc(NC(=O)Cc2ccccc2Cl)ccc1OCCc1cccc(Cl)c1	pIC50	7.92

A. NS(=O)(=O)c1cc(NC(=O)Cc2ccccc2C(F)(F)F)cnc1Oc1cccc(Cl)c1
B. NS(=O)(=O)c1cc(NC(=O)Cc2ccccc2Cl)ccc1OCc1cccc(Cl)c1
Lookup: // compare measured pIC50, left A , right B , return larger Give the label under which the chosen entry appears.
Found: B

A. NS(=O)(=O)c1cc(NC(=O)Cc2ccccc2Cl)ccc1OC1CCOCC1
B. NS(=O)(=O)c1cc(NC(=O)Cc2ccccc2Cl)ccc1OCc1cccnc1
C. CS(=O)(=O)c1cccc(Oc2ccc(NC(=O)Cc3ccccc3Cl)cc2S(N)(=O)=O)c1
Lookup: Exam item: list the entries in increasing order of pIC50. Response field: labels, in requested order.
Found: A, C, B
(A: 6.33, C: 7.02, B: 7.35)

A. COc1ccc(Cl)c(CC(=O)Nc2ccc(Oc3cccc(Cl)c3)c(S(N)(=O)=O)c2)c1
B. Cc1ccc(Br)c(Cl)c1CC(=O)Nc1ccc(Oc2cccc(Cl)c2)c(S(N)(=O)=O)c1
C. NS(=O)(=O)c1cc(NC(=O)Cc2cccc(C(F)(F)F)c2Cl)ccc1Oc1cccc(Cl)c1
D. NS(=O)(=O)c1cc(NC(=O)Cc2ccccc2Cl)ccc1OCC1(Cl)CCOCC1
Lookup: Parameters: sort_field (pIC50), sort_dir (desc). Response field: labels, in requested order.
Found: A, C, B, D
(A: 7.17, C: 6.70, B: 6.27, D: 5.35)

A. Cc1nc(-c2cccc(Oc3ccc(NC(=O)Cc4ccccc4Cl)cc3S(N)(=O)=O)c2)cs1
B. NS(=O)(=O)c1cc(NC(=O)Cc2ccccc2Cl)cnc1Oc1cccc(C(F)(F)F)c1
Lookup: // compare measured pIC50, left A , right B , return larger Give the label under which the chosen entry appears.
Found: A
(A: 7.28, B: 7.07)

----------
Target: UniProt:Q99571
Assay: Assay B: human P2X4 receptor cell line, mitochondrial photina luminescence (agonist Bz-ATP at EC50)
Format: cell-based
Set-up: host or cells: HEK 293 (recombinant, constitutively expressing; with mitochondrial photina in Assay B)
Details: HEK human P2X4 cell line, photina luminescence, agonist Bz-ATP at EC50, average
pIC50: −log10 of the molar value.
measurement-label: pIC50

cpd-smiles	measured-on	pIC50
NS(=O)(=O)c1cc(NC(=O)Cc2ccccc2Cl)ccc1Oc1ccc(N2CCCC2=O)cc1	UniProt:Q99571	6.17
NS(=O)(=O)c1cc(NC(=O)Cc2cccnc2)ccc1Oc1cccc(Cl)c1	UniProt:Q99571	5.65
NS(=O)(=O)c1cc(NC(=O)Cc2ccccc2Cl)ccc1Oc1cccc(OC(F)F)c1	UniProt:Q99571	7.49

A. NS(=O)(=O)c1cc(NC(=O)Cc2cc(F)ccc2Cl)ccc1Oc1cccc(Cl)c1
B. NS(=O)(=O)c1cc(NC(=O)Cc2ccccc2)ccc1OC1CCC1
C. NS(=O)(=O)c1cc(NC(=O)Cc2ccccc2Cl)ccc1Oc1cncnc1
D. N#Cc1cccc(Oc2ccc(NC(=O)Cc3ccccc3)cc2S(N)(=O)=O)c1
E. NS(=O)(=O)c1cc(NC(=O)Cc2c(Cl)ccc(Br)c2Cl)ccc1Oc1cccc(Cl)c1
Lookup: Exam item: list the entries in increasing order of pIC50. Response field: labels, in requested order.
Found: B, E, C, D, A
(B: 5.39, E: 5.62, C: 5.85, D: 6.57, A: 7.66)

----------
Target: UniProtKB Q99571
Assay: Assay B: human P2X4 receptor cell line, mitochondrial photina luminescence (agonist Bz-ATP at EC50)
Format: cell-based
Design: host or cells: HEK 293 (recombinant, constitutively expressing; with mitochondrial photina in Assay B)
Settings: HEK human P2X4 cell line, photina luminescence, agonist Bz-ATP at EC50, average
measurement-label: IC50 (µM)

For orientation, consider the following solved cases.
compound	measurement-units	IC50
NS(=O)(=O)c1cc(NC(=O)Cc2ccccc2)ccc1Oc1ccc(OC(F)(F)F)cc1 [Example 252]	µM	6.46
Cc1ccncc1CC(=O)Nc1ccc(Oc2cccc(Cl)c2)c(S(N)(=O)=O)c1 [Example 092]	µM	3.44
NS(=O)(=O)c1cc(NC(=O)Cc2ccccc2Cl)ccc1Oc1cccc(N2CCCC2=O)c1 [Example 050]	µM	0.112

A. NS(=O)(=O)c1cc(NC(=O)Cc2ccccc2Cl)ccc1OCc1ncccn1 [Example 154]
B. NS(=O)(=O)c1cc(NC(=O)Cc2ccccc2Cl)ccc1OCc1ccccc1F [Example 137]
C. Cc1cc(Oc2cccc(Cl)c2)c(S(N)(=O)=O)cc1NC(=O)Cc1ccccc1Cl [Example 240]
D. Cc1cc(Cl)c(CC(=O)Nc2ccc(Oc3cccc(Cl)c3)c(S(N)(=O)=O)c2)c(Cl)c1 [Example 126]
Lookup: Exam item: list the entries in increasing order of IC50. Response field: labels, in requested order.
Found: B, A, D, C
(B: 0.033 µM, A: 0.252 µM, D: 0.467 µM, C: 3.04 µM)

----------
Biological target: P2X4 (Homo sapiens, UniProt Q99571)
Sequence (Q99571 1-388): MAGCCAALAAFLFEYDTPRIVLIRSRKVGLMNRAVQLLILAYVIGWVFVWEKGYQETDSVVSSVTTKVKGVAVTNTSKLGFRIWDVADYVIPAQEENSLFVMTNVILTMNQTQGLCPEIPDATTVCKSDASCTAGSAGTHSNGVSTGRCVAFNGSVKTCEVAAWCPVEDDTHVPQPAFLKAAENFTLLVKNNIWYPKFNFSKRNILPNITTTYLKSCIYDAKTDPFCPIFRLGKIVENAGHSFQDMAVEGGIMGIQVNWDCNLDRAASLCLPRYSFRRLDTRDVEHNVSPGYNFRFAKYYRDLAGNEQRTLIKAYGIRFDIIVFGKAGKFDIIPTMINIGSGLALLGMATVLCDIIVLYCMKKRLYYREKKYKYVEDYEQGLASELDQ
Assay: Assay A: human P2X4 receptor cell line, FLIPR calcium assay (Fluo-8, agonist Bz-ATP at EC80)
Assay type: cell-based
Parameters: host or cells: HEK 293 (recombinant, constitutively expressing; with mitochondrial photina in Assay B)
Details: percentage of maximal inhibition; HEK human P2X4 cells, Fluo-8 FLIPR; read-out: human P2X4 Assay A avg Efficacy
Description: A fluorescent imaging plate reader (FLEX/FLIPR station; Molecular Devices) was used to monitor intracellular calcium levels using the calcium-chelating dye Fluo-8 (Molecular Probes). […] The fluorescence was measured for an interval of 120 sec at 2 sec intervals and analyzed based on the increase in peak relative fluorescence units (RFU) compared to the basal fluorescence. […]
measurement-label: Emax (%)

compound	val
Cc1cccc(Cl)c1CC(=O)Nc1ccc(Oc2cccc(Cl)c2)c(S(N)(=O)=O)c1	72
NS(=O)(=O)c1cc(NC(=O)Cc2ccccc2Cl)ccc1OC[C@H]1[C@@H]2COC[C@@H]21	89
N#Cc1cccc(Oc2ccc(NC(=O)Cc3ccccc3Cl)cc2S(N)(=O)=O)c1	71

1. NS(=O)(=O)c1cc(NC(=O)Cc2ccccc2Cl)ccc1Oc1ccc(N2CCOC2=O)cc1
2. NS(=O)(=O)c1cc(NC(=O)Cc2ccccc2Cl)ccc1Oc1ccc(N2CCCCC2=O)cc1
Lookup: // select label with min value of measured Emax from [ 1 , 2 ] Give the label under which the chosen entry appears.
Found: 2
(2: 52%, 1: 82%)

----------
Biological target: P2X4 (Homo sapiens)
Sequence (Q99571 1-388): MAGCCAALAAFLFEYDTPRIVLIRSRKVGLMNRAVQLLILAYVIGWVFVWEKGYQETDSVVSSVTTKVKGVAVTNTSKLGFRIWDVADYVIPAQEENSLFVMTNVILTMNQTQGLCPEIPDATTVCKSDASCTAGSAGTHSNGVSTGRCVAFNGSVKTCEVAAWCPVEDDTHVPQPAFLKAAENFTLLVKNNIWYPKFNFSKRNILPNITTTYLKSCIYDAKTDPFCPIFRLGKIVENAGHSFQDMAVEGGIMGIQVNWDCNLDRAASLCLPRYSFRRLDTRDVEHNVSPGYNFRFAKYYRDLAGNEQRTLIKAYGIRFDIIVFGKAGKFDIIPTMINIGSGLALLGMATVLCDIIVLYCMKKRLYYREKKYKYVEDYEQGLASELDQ
Assay: Assay B: human P2X4 receptor cell line, mitochondrial photina luminescence (agonist Bz-ATP at EC50)
Type: cell-based
Parameters: host or cells: HEK 293 (recombinant, constitutively expressing; with mitochondrial photina in Assay B)
Conditions: HEK human P2X4 cell line, photina luminescence, agonist Bz-ATP at EC50, average
measurement-label: IC50 (nM)

compound	measurement-units	IC50
NS(=O)(=O)c1cc(NC(=O)Cc2cccc(Cl)c2Cl)ccc1Oc1cccc(Cl)c1	nM	141

a. NS(=O)(=O)c1cc(NC(=O)Cc2c(Cl)ccc3c2CCO3)ccc1Oc1cccc(Cl)c1
b. NS(=O)(=O)c1cc(NC(=O)Cc2ccccc2Cl)ccc1Oc1cc(Cl)cnc1Cl
Lookup: // select label with min value of measured IC50 from [ a , b ] Give the label under which the chosen entry appears.
Found: a

A. N#Cc1cccc(Oc2ccc(NC(=O)Cc3ccccc3Cl)cc2S(N)(=O)=O)c1
B. NS(=O)(=O)c1cc(NC(=O)C(F)(F)c2ccccc2)ccc1Oc1cccc(Cl)c1
Lookup: // compare measured IC50, left A , right B , return larger Give the label under which the chosen entry appears.
Found: B
(B: 524 nM, A: 25 nM)
